Test system: thymocytes of surrenalectomized rats
Experiment: Antiglucocorticoidal activity, incorporation of tritiated uridine in thymocytes
Assay type: cell-based
Details: Rattus norvegicus, Thymocyte; 5 × 10^-8 M dexamethasone + test product 10^-6 M; read-out: % inhibition of effect of Dexamethasone
Field: inhibition at 1 µM. Provide a value for each of the compounds that follow.
Supply the numeric figure in %, leaving out any unit text.

get_value(item= C/C=C/[C@]1(O)CC[C@H]2[C@@H]3CCC4=C(CCC(=O)C4)[C@H]3[C@@H](c3cccc(OC)c3)C[C@@]21C [6 (17α propenyle)] , readout=inhibition at 1 µM) returns 56

Reported inhibition at 1 µM ( CC#C[C@]1(O)CC[C@H]2[C@@H]3CCC4=CC(=O)C(=COC(C)=O)CC4=C3[C@@H](c3ccc(N(C)C)cc3)C[C@@]21C [Example 3] ) = 60

Note to self: inhibition at 1 µM recorded for CC#C[C@]1(O)CC[C@H]2[C@@H]3CCC4=C(CCC(=O)C4)[C@H]3[C@@H](c3cccc(OC)c3)C[C@@]21C [Example 6] was 68

# compound CC#C[C@]1(O)CC[C@H]2[C@@H]3CCC4=CC(=O)[C@H](C)CC4=C3[C@@H](c3ccc(N(C)C)cc3)C[C@@]21C [5 (2α)] ; its inhibition at 1 µM = 100

The value of inhibition at 1 µM measured for the compound CC#C[C@]1(O)CC[C@H]2[C@@H]3CCC4=CC(=O)C(C#N)(C#N)CC4=C3[C@@H](c3ccc(N(C)C)cc3)C[C@@]21C [Example 9] turned out to be 2

Please fill in: inhibition at 1 µM reported for CC#C[C@]1(O)CC[C@H]2[C@@H]3CCC4=CC(=O)C(=CN5CCOCC5)CC4=C3[C@@H](c3ccc(N(C)C)cc3)C[C@@]21C [Example 4] = 51
